- protocol_notes: label from the status in PepcDB records
value_kind: protein production

- NLNAIQNFGAMNILCTDKTGTLTCDKIVLEKYINADGSDDHSRRILRHAFLNSYFQTGLKNLMDKAILAHVREENLEHLTEGYTKIDEIPFDFSRRRMSVVIEDQQGKRQIITKGAVEEMLNICSHAEFNGQVYELTDKLRSKAKRISDDMNRNGMRVLAIAQKSFISKARDFAVTDEDEMVLIGYLAFLDP: failed
- MGSSHHHHHHSSGLVPRGSHMLEGIIEEKALFVTCGATVPFPKLVSCVLSDEFCQELIQYGFVRLIIQFGRNYSSEFEHLVQERGGQRESQKIPIDQFGCGDTARQYVLMNGKLKVIGFDFSTKMQSIIRDYSDLVISHAGTGSILDSLRLNKPLIVCVNDSLMDNHQQQIADKFVELGYVWSCAPTETGLIAGLRASQTEKLKPFPVSHNPSFERLLVETIYS: not failed
- MQVSREFKGIFLASISATFWGISGAVAQTLFDTTDINSIWLTGIRMLGAGIALLLVSLLTHVDLWSIWRQPRDLLQIVAYTLLGLMPVQFTYFLAVEASNAATGTILQFMGPVFIALWMLVAHRQLPTRAEGLAIICALLGSFLLVTHGNPQTLVISVWALIWGLLSGVSSATNTLLPTKLLTKYDPMTVNTWSMLLGGILFNIVQPVWSIHIPLTMLNISKLTFVVLFGTLLAFLFFLQSLQYIRPTVVSLLDAFEPLSATIIAVVLLGVSFGWLDILGSVLIISTVFILAIGQGPNDRTAENFKQP: failed
- MRVNGLTKGFFILIVFIVTLAFFDVLSPYYSAILWAAILAVIFNPVKNKIRTRLGERNGLAALMTIVIICLIVFTPLAIILSSLAYELNLVYSKLQHNDTQFPTVVASLFAHLPGWARSFLADHNLDSAQQIQQQLSDAALKGGQYLAGSAFLIGKGTFGFTVSFGIMLYLLFFLLKDGPYLVLLILESLPLSSYVKQHLFAKFAAVARATVKGTVAVALAQGALGGFAFWIAGLDGSILWGALMAFLSLIPAVGSAIIWVPAAIYLFATGQLWQGAFIVGFFVIVIGLVDNILRPLLVGKDTRMPDYLILIATLGGMEIYGINGFVIGPLIAALFIACWNLLSGREHAGNTDEIDEEFIEEAKNSRNE: failed
- KSPVREPVDNLSPEERDARTVFCMQLAARIRPRDLEDFFSAVGKVRDVRIISDRNSRRSKGIAYVEFCEIQSVPLAIGLTGQRLLGVPIIVQASQAEKNRL: not failed
- MFAHIGEDYVVNSSELLLIMSYDIFMSSEDNLRILESLKNEDRLVVINDDLKKSIIILEIDGRLYAIVSPVSSTTIAKRFLNFNYYVDNYLDESLEHHHHHH: not failed
- MGSDISQFSASPAARQHTWTLAAYRYMARKRLGGKTAIDLKSVATKSWDIAPGEATVSPPAIFLPGQLDRVTGWEGKRFYPYVHPAQTMAGGIHTLQGPTRGYLIKDVWLVDGALYKGKASHWLSQKPSTFPTILIDHEIDRAAIYCTLNGNAWFGTWLMEDCPTYALACNEGIPVTTAPSARYPLFTQAPAYEDWLDMKPLRLRSAFFRELVLFDDQSNNRSRHARYRAMGDKLLSHVTHTQHPGVFLLRGGDGDLRLLRNELELAEHLRTTRGFRIVNPLKSDVPSIVAACAGAKVVIGVEGSQLVHGVNVLQAGGCLLTLQPPNRFVSYYKYLTDRDHQHFGFVVGLPEGDGFRIDIDEVERTLDLFPR: failed
- MTYQALMFDIDGTLTNSQPAYTTVMREVLATYGKPFSPAQAQKTFPMAAEQAMTELGIAASEFDHFQAQYEDVMASHYDQIELYPGITSLFEQLPSELRLGIVTSQRRNELESGMRSYPFMMRMAVTISADDTPKRKPDPLPLLTALEKVNVAPQNALFIGDSVSDEQTAQAANVDFGLAVWGMDPNADHQKVAHRFQKPLDILELFK: not failed
- MDNWQDITDDRLVRPIHPGEVIADILDDLDINTANFAEILGVSNQTIQEVINGQRSITVDIAIRLGKALGNGPRLWLNLQQKVDLWYALQSHKEEYEQVMTLV: not failed
- MVKDTLFSTPIAKLGDFIFDENVAEVFPDMIQRSVPGYSNIITAIGMLAERFVTADSNVYDLGCSRGAATLSARRNINQPNVKIIGIDNSQPMVERCRQHIAAYHSEIPVEILCNDIRHVEIKNASMVILNFTLQFLPPEDRIALLTKIYEGLNPNGVLVLSEKFRFEDTKINHLLIDLHHQFKRANGYSELEVSQKRTALENVMRTDSIETHKVRLKNVGFSQVELWFQCFNFGSMIAVK: not failed
- MSQIEAVFFDCDGTLVDSEVICSRAYVTMFRQFDITLELTEVFRRFKGVKLYEIIDTISKEHGVALAKAELEPVYRAEVARLFDTELEAIAGANTLLESIKTPMCVVSNGPVSKMQHSLGKLGMLHHFPDLLFSGYDIQRWKPDPALMLHAANAMKVNVEKCILVDDSSAGAQSGIAAGMEVFYFCADPHNKPIDHPNVTTFTDLAQLPGLWKAR: failed
- MSNPNEDSPMILQRIFALALLAMCAALAVMAWPYQAAFSYEPVGPRAYPLLVLGLMGLGLLYLVFRPTPIVRKDDEPELDRETLIKITACVGLLIVFAATFEALGFILSAILVGLPMARLYGGRWLQSAIVVAGMSIFLYWLFDRVMDVPLPLGLLSVLEN: failed
- MICLTSKMMAFLPYFLELKGKRVNIQALINDRVSQAIEAAGAPAGTPALVRQSAKAQFGDYQANGIMGAAKQLGTNPREFAQKVLDVLNLEGIASKTEIAGPGFINIFLSEEFLAAQAEAALADAR: failed
